Test: HTRF signal interference by compounds, confirmation, artefact control for SUMOylation inhibitor project, biochemical, uHTS (AID 2069)
Details: HTRF interference counterscreen, fluorescence, at 35 µM, hits give high values
Hit rate of the full screen: of about 1,200 compounds, about 210 (18%) were called active. A selection follows.
reportedProperty: inhibition

Ask: So what does the record say about inhibition for `Cc1cc(=O)[nH]c(-n2[nH]c(C)cc2=O)n1` ?
Reply: -1.85% (inactive)

Ask: So what does the record say about inhibition for `Cc1cc2oc(C(=O)Nc3ccc(S(=O)(=O)Nc4nccs4)cc3)cc(=O)c2cc1Cl` ?
Reply: -9.2% (inactive)

Ask: So what does the record say about inhibition for `Cc1cccc2nc(-c3ccco3)c(Nc3ccc4c(c3)OCO4)n12` ?
Reply: -6.85% (inactive)

Ask: So what does the record say about inhibition for `Cc1ccc(N2CCN(Cc3ccccc3)CC2=O)c(C)c1` ?
Reply: -6.45% (inactive)

Ask: So what does the record say about inhibition for Cc1ccc(S(=O)(=O)C(C#N)c2nc3ccccc3nc2N2CC(C)OC(C)C2)cc1C (stereo unspecified) ?
Reply: 4.8% (inactive)

Ask: So what does the record say about inhibition for `Cc1ccc(N=C2NC(=O)/C(=C\c3ccco3)S2)cc1` ?
Reply: -0.45% (inactive)
